pKi: −log10 of the molar value.
// merged dataset of pKi values, system = Adenosine receptor A2a (Homo sapiens, UniProt P29274), multiple refs
Sequence (P29274 whole entry): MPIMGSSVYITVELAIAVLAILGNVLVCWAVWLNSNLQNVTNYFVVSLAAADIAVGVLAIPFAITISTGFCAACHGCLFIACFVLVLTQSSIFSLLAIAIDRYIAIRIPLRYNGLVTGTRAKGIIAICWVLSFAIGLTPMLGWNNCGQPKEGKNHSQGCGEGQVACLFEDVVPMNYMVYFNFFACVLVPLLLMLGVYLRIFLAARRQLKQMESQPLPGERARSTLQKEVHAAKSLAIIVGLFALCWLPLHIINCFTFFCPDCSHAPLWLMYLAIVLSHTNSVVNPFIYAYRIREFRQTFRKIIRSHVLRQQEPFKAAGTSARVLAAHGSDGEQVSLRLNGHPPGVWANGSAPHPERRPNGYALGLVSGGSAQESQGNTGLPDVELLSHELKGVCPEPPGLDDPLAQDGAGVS
endpoint name: pKi

1) CCCn1c(=O)n(C)c(=O)c2[nH]c(-c3ccc(OCC(=O)N4CCC(c5ccccc5)(c5ccccc5)CC4)cc3)cc21; 5.45
2) COCCCOc1ccc(N2CCN(CCn3ncc4c3nc(N)n3nc(-c5ccco5)nc43)CC2)cc1; 9.22
3) Nc1nc(NCCc2ccc(O)cc2)nc2sc(-c3ccco3)nc12; 7.74
4) O=C(Cc1ccccc1)Nc1nc(-c2ccccc2)c(-c2ncon2)s1; 6.15
5) CCc1cc2c(=O)c(-c3nc(C)cs3)coc2cc1OCC(=O)OC(C)C; 7.82
